- ASSAY_TARGET: AAV5 (adeno-associated virus serotype 5)
- METHOD_NOTES: SPR, AAV on CM5 chip
READOUT_LABEL: kon (M⁻¹ s⁻¹)

BINDER | READOUT_UNITS | NUMBER
A4-B2 (bispecific antibody) VQLQESGGGLVQAGGSLRLSCAASGSRFSINTMGWYRQAPGKQREFVATVTRGGNTNYAESVKGRFTISRDNAKNTVYLQMNSLRPEDTAVYYCHVDEVRDSSWTTSNIWGQGTQVTVSSGGGGSGGGGSGGGGSVQLQESGGGLVQAGGSLRLSCAASGSTFSINTMGWYRQAPGKQRELVATITRGGNTNYADSVKGRFTISRDNAKNTVYLQMNSLRPEDTAVYYCHVDEVRQSSWTTSNLWGQGTQVTVSS | M⁻¹ s⁻¹ | 159000
A4-B1 (VHH) VQLQESGGGLVQPGGSLRLSCAASGSIFSINLMGWYRQAPGKQRELVATITRGGNTNYAGSVKGRFTISRDNAKNTVYLQMNSLRPEDTAVYYCHVDEVRQSSWTTSNLWGQGTQVTVSSGGGGSGGGGSGGGGSVQLQESGGGLVQPGGSLRLSCAASGSIFSINLMGWYRQAPGKQRELVATITRGGNTNYAGSVKGRFTISRDNAKNTVYLQMNSLRPEDTAVYYCHVDEVRQSSWTTSNLWGQGTQVTVSS | M⁻¹ s⁻¹ | 121000
A4-C3 (bispecific antibody) VQLQESGGGLVQPGGSLRLSCAASGSIFSINLMGWYRQAPGKQRELVATITRGGNTNYAGSVKGRFTISRDNAKNTVYLQMNSLRPEDTAVYYCHVDEVRQSSWTTSNLWGQGTQVTVSSGGGGSGGGGSGGGGSVQLQESGGGLVQPGGSLRLSCAASGSIFSINLMGWYRQAPGKQRELVATITRGGNTNYAGSVKGRFTISRDNAKNTVYLQMNSLRPEDTAVYYCHVDEVRQSSWTTSNLWGQGTQVTVSSGGGGSGGGGSGGGGSVQLQESGGGLVQPGGSLRLSCAASGSNFRINTMGWYRQAPGKQRELVATVTRGGSTNYADSVKGRFTISRDNPKDTVYLQMNSLRPEDTAVYYCHVDEVRESSWTTSNLWGQGTQVTVSS | M⁻¹ s⁻¹ | 143000
